Recorded EC50 (µM), activation of Tango CMKLR1-bla U2OS cells by entry
experimental-system: T1, human Chemokine like receptor 1 (human, UniProt Q99788 1-373)
T1 sequence (looked up): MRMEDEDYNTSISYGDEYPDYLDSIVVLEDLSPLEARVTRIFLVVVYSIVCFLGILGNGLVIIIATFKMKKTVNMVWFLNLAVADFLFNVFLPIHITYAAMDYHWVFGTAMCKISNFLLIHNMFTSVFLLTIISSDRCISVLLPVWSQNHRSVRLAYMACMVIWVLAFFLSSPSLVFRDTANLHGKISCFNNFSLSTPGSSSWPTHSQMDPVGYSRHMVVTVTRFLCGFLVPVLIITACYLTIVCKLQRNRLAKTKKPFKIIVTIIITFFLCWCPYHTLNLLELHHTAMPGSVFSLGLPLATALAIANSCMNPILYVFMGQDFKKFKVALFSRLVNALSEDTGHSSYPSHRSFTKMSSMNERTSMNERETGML
measurement-protocol: cell-based or functional assay
Square brackets hold non-standard residues; d marks the D form. Ends that are not written are not given here. Pro(5R-Ph) = O=C(O)[C@@H]1CC[C@H](c2ccccc2)N1; 2Nal = N[C@@H](Cc1ccc2ccccc2c1)C(=O)O; Tic = O=C(O)[C@@H]1Cc2ccccc2CN1; NMeL = CN[C@@H](CC(C)C)C(=O)O; NMeS = CN[C@@H](CO)C(=O)O
readout-label: EC50 (µM), activation of Tango CMKLR1-bla U2OS cells

{"binder": "[dY]F[NMeL][Pro(diF)][dS]Q[2Nal][dA][Tic][NMeS] [YW-224]", "endpoint-value": 0.0013}
{"binder": "[dY]FLP[dS]QF[dA][Pro(5R-Ph)]S-OH (N-terminus assumed; SMILES CC(C)C[C@H](NC(=O)[C@H](Cc1ccccc1)NC(=O)[C@H](N)Cc1ccc(O)cc1)C(=O)N1CCC[C@H]1C(=O)N[C@H](CO)C(=O)N[C@@H](CCC(N)=O)C(=O)N[C@@H](Cc1ccccc1)C(=O)N[C@H](C)C(=O)N1[C@@H](c2ccccc2)CC[C@H]1C(=O)N[C@@H](CO)C(=O)O) [YW-91]", "endpoint-value": 0.46}
